The measurements presented in this section are drawn from patent US9650379B2.

Target: HDAC6 human recombinant (Homo sapiens)
Assay: Inhibition of HDAC6 activity (fluorimetric assay)
Conditions: test concentrations 0.1, 1, 10, 100 and 1000 nM; 37° C., 60 minutes
TEST_READOUT: IC50 (nM)

Record excerpt, results attached:
>>> df
                                   compound                               tested_on  numeric_value
0  CC(C)(C)OC(=O)N1CC=C(c2ccc3c(ccn3Cc3ccc(C(=O)NO)cc3)n2)CC1  HDAC6 human recombinant (Homo sapiens)              8
1  O=C(NO)c1ccc(Cn2ccc3cc(C4CCN(Cc5cccnc5)CC4)cnc32)cc1  HDAC6 human recombinant (Homo sapiens)            4.1
2  O=C(NO)c1ccc(Cn2ccc3cc(C4=CCNCC4)cnc32)cc1  HDAC6 human recombinant (Homo sapiens)              3

I = CC(C)(O)CN1CC2(CCN(c3ccnc4c3ccn4Cc3ccc(C(=O)NO)cc3)CC2)C1
II = O=C(NO)c1ccc(Cn2ccc3cc(C4CCOCC4)cnc32)cc1
III = O=C(NO)c1ccc(Cn2ccc3c(N4CC5CCC(C4)N5Cc4cccnc4)ccnc32)cc1
IV = CC(O)(CO)CN1CCC(c2ccnc3c2ccn3Cc2ccc(C(=O)NO)cc2)CC1 (centres unmarked)
V = O=C(NO)c1ccc(Cn2ccc3c(C4CCN(Cc5cccc(F)c5)CC4)ccnc32)cc1
Ask: Please give the order of these compounds when sorted by IC50, largest value leading. Answer format: the labels, ordered as requested.
Reply: V, II, III, IV, I

====

Form: system (HDAC1 (Homo sapiens)), quantity (pIC50), values below.
pIC50: −log10 of the molar value.
TEST_READOUT: pIC50

Record excerpt, results attached:
                               smiles_entry  test_readout  numeric_value
0  O=C(NO)c1ccc(Cn2ccc3c(N4CCN(Cc5ccccc5)CC4)ccnc32)cc1         pIC50           6.21
1  CC(C)(O)CN1CCC(c2ccnc3c2ccn3Cc2ccc(C(=O)NO)cc2)CC1         pIC50           6.82

1 = O=C(NO)c1ccc(Cn2ccc3cc(-c4cncnc4)cnc32)cc1
2 = CC(C)(C)OC(=O)N1CC=C(c2nccc3c2ccn3Cc2ccc(C(=O)NO)cc2)CC1
3 = CC(C)(C)OC(=O)N1CCC(c2cnc3c(ccn3Cc3ccc(C(=O)NO)cc3)c2)CC1
Ask: Please give the order of these compounds when sorted by pIC50, largest value leading. Answer format: the labels, ordered as requested.
Reply: 1, 2, 3
(1: 6.27, 2: 5.95, 3: 5.29)

====

Molecular target: HDAC6 human recombinant (Homo sapiens, UniProt Q9UBN7)
Construct: purchased Calbiochem 382180
Sequence (Q9UBN7 whole entry): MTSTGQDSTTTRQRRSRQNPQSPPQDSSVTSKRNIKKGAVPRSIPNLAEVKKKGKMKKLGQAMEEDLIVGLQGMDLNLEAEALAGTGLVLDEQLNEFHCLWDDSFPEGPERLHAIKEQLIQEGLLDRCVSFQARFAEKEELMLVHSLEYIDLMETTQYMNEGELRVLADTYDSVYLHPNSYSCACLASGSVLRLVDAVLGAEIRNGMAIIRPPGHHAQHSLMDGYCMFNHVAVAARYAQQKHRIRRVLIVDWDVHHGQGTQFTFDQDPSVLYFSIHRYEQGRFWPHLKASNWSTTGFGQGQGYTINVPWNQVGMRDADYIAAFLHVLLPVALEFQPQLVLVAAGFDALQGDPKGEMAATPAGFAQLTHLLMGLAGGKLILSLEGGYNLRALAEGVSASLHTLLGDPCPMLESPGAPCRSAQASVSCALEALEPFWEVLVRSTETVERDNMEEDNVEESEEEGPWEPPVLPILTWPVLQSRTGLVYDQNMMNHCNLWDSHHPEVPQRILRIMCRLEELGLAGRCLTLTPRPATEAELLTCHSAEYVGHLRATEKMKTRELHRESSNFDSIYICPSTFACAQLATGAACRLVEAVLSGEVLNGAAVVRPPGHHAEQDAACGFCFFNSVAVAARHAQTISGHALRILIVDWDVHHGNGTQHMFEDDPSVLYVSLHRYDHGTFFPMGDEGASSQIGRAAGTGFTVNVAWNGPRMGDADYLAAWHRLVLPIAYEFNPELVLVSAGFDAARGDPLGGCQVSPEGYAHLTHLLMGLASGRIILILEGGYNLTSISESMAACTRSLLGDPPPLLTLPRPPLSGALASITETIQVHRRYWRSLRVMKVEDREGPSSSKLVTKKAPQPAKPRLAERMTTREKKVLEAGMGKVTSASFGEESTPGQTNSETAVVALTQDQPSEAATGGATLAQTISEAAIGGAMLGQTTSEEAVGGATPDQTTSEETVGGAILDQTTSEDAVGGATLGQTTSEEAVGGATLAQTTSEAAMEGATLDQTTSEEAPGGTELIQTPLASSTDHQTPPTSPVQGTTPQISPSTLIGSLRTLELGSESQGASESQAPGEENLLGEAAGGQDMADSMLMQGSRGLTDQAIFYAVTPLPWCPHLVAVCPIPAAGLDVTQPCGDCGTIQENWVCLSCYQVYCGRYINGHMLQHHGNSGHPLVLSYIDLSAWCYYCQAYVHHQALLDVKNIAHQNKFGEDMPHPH
Experiment: Inhibition of HDAC6 activity (fluorimetric assay)
Assay type: biochemical
Conditions: test concentrations 0.1, 1, 10, 100 and 1000 nM; 37° C., 60 minutes
Protocol: Assays were performed using a HDAC1 fluorimetric drug discovery assay kit (Enzolifesciences: BML-AK511) and a HDAC6 human recombinant (Calbiochem: 382180). […] The treated assay mixture was allowed to react at 37° C. for 60 minutes, and then was treated with a developer and allowed to stand at 37° C. for 30 minutes, followed by quantification of the fluorescence.
pIC50: −log10 of the molar value.
TEST_READOUT: pIC50

>>> df
                                   compound  numeric_value
0  O=C(NO)c1ccc(Cn2ccc3c(-c4ccccc4)ccnc32)cc1 [Compound 656]           7.80
1  O=C(NO)c1ccc(Cn2ccc3c(N4CCC5(CC4)CN(Cc4cccnc4)C5)ccnc32)cc1 [Compound 1024]           8.74
2  CC(C)(C)OC(=O)N1CC=C(c2cc3c(ccn3Cc3ccc(C(=O)NO)cc3)cn2)CC1 [Compound 783]           7.92
3  O=C(NO)c1ccc(Cn2ccc3cc(N4CCC5(CC4)CN(Cc4cccnc4)C5)cnc32)cc1 [Compound 957]           8.80
4  O=C(NO)c1ccc(Cn2ccc3cc(N4CCOCC4)cnc32)cc1 [Compound 787]           7.60

P = CN1CCN(c2ccnc3c2ccn3Cc2ccc(C(=O)NO)cc2)CC1 [Compound 224]
Q = CN1CCN(Cc2ccc(C(=O)N3CCC(c4cnc5c(ccn5Cc5ccc(C(=O)NO)cc5)c4)CC3)cc2)CC1 [Compound 898]
Ask: Which gives the smaller pIC50 number: P or Q ? Output the label that corresponds to your choice.
Reply: Q
(Q: 8.21, P: 8.70)

P = CC(C)(C)OC(=O)N1CCN(c2ccnc3c2ccn3Cc2ccc(C(=O)NO)cc2)CC1 [Compound 212]
Q = Cn1ncc2ccc(-c3cnc4c(ccn4Cc4ccc(C(=O)NO)cc4)c3)cc21 [Compound 685]
R = CC(C)(F)C(=O)N1CCN(c2ccnc3c2ccn3Cc2ccc(C(=O)NO)cc2)CC1 [Compound 856]
Ask: Hi! Can you put these in order of pIC50, lowest number first? Answer format: the labels, ordered as requested.
Reply: P, Q, R
(P: 7.85, Q: 8.22, R: 8.64)

A = O=C(NO)c1ccc(Cn2ccc3cc(C4CCN(C(=O)c5cccc(CN6CCOCC6)c5)CC4)cnc32)cc1 [Compound 895]
B = O=C(NO)c1ccc(Cn2ccc3cc(C4CCN(Cc5ccc(-n6ccnc6)cc5)CC4)cnc32)cc1 [Compound 873]
C = O=C(NO)c1ccc(Cn2ccc3cc(C4CCN(S(=O)(=O)c5ccccc5)CC4)cnc32)cc1 [Compound 876]
D = O=C(NO)c1ccc(Cn2ccc3c(C4CCN(Cc5ccccc5F)CC4)ccnc32)cc1 [Compound 869]
E = CC(C)(O)CN1C2CCC1CC(c1ccnc3c1ccn3Cc1ccc(C(=O)NO)cc1)C2 (centres unmarked) [Compound 930]
Ask: Please give the order of these compounds when sorted by pIC50, largest value leading. Answer format: the labels, ordered as requested.
Reply: E, A, B, D, C
(E: 8.77, A: 8.12, B: 7.78, D: 7.58, C: 7.38)

====

Molecular target: HDAC6 human recombinant (Homo sapiens)
Experiment: Inhibition of HDAC6 activity (fluorimetric assay)
Details: test concentrations 0.1, 1, 10, 100 and 1000 nM; 37° C., 60 minutes
TEST_READOUT: IC50 (nM)

Record excerpt, results attached:
>>> print(df.to_string())
                               smiles_entry  test_readout  numeric_value
0  O=C(NO)c1ccc(Cn2ccc3cc(C4CCN(CC5(C(F)(F)F)CCC5)CC4)cnc32)cc1          IC50            147
1  O=C(NO)c1ccc(Cn2ccc3c(-c4ccc(F)cc4F)ccnc32)cc1          IC50             21
2  O=C(NO)c1ccc(Cn2ccc3cc(-c4ccc5cccnc5c4)cnc32)cc1          IC50             22
3  COc1cccc(CN2[C@H](C)CN(c3cnc4c(ccn4Cc4ccc(C(=O)NO)cc4)c3)C[C@@H]2C)c1          IC50            7.7
4  COc1cccc(CN2CCC(c3ccnc4c3ccn4Cc3ccc(C(=O)NO)cc3)CC2)c1          IC50              6
5  O=C(NO)c1ccc(Cn2ccc3cc(N4CCN(Cc5ccc(F)cc5)CC4)cnc32)cc1          IC50           11.5

1 = O=C(NO)c1ccc(Cn2ccc3c(N4CCC5(CCN(Cc6cccnc6)C5)CC4)ccnc32)cc1
2 = O=C(NO)c1ccc(Cn2ccc3cc(-c4cncnc4)cnc32)cc1
3 = O=C(NO)c1ccc(Cn2ccc3c(N4CCN(c5cnc(C(F)(F)F)cn5)CC4)ccnc32)cc1
Ask: Hi! Can you put these in order of IC50, lowest number first? Answer format: the labels, ordered as requested.
Reply: 1, 3, 2
(1: 5.8 nM, 3: 23 nM, 2: 120 nM)

====

Target: HDAC6 human recombinant (Homo sapiens, UniProt Q9UBN7)
Assay: Inhibition of HDAC6 activity (fluorimetric assay)
Details: test concentrations 0.1, 1, 10, 100 and 1000 nM; 37° C., 60 minutes
TEST_READOUT: IC50 (nM)

Record excerpt, results attached:
>>> df
                                   molecule                                 tested_on  units_of_measure  numeric_value
0  O=C(NO)c1ccc(Cn2ccc3c(C4CCN(C(=O)c5cccc(F)c5)CC4)ccnc32)cc1 [Compound 860]  HDAC6 human recombinant (Homo sapiens, UniProt Q9UBN7)                nM            2.5
1  CC1CN(c2cnc3c(ccn3Cc3ccc(C(=O)NO)cc3)c2)CC(C)O1 (stereo not shown) [Compound 807]  HDAC6 human recombinant (Homo sapiens, UniProt Q9UBN7)                nM           10.4
2  O=C(NO)c1ccc(Cn2ccc3c(-c4ccc(CN5CCOCC5)cc4)ccnc32)cc1 [Compound 762]  HDAC6 human recombinant (Homo sapiens, UniProt Q9UBN7)                nM             10
3  O=C(NO)c1ccc(Cn2ccc3c(N4CCN(Cc5ccncc5)CC4)ccnc32)cc1 [Compound 850]  HDAC6 human recombinant (Homo sapiens, UniProt Q9UBN7)                nM            4.4
4  CN1CCN(c2ccccc2CN2CCC(c3cnc4c(ccn4Cc4ccc(C(=O)NO)cc4)c3)CC2)CC1 [Compound 883]  HDAC6 human recombinant (Homo sapiens, UniProt Q9UBN7)                nM            2.1

a = O=C(NO)c1ccc(Cn2ccc3cc(C4CCN(Cc5cncnc5)CC4)cnc32)cc1 [Compound 880]
b = CC(C)N1CCN(c2ccnc3c2ccn3Cc2ccc(C(=O)NO)cc2)CC1 [Compound 225]
Ask: Between the entries labelled a and b , which has a larger IC50 value on record? Output the label that corresponds to your choice.
Reply: a
(a: 6 nM, b: 3 nM)

A = CC(C)(F)C(=O)N1CCN(c2cnc3c(ccn3Cc3ccc(C(=O)NO)cc3)c2)CC1 [Compound 855]
B = O=C(NO)c1ccc(Cn2ccc3c(C4CCN(Cc5cccc(CN6CCOCC6)c5)CC4)ccnc32)cc1 [Compound 985]
C = CN1CCN(Cc2cccc(C(=O)N3CCC(c4cnc5c(ccn5Cc5ccc(C(=O)NO)cc5)c4)CC3)c2)CC1 [Compound 896]
Ask: Please give the order of these molecules when sorted by IC50, largest value leading. Answer format: the labels, ordered as requested.
Reply: C, A, B
(C: 8.6 nM, A: 3.5 nM, B: 2.3 nM)
